Parameter TGI: see the listing below.
System: U251 CNS
Experiment: NCI tumour cell line growth inhibition, 48 h
value.kind: TGI (µM)

molecule=COc1ccc2[nH]c(Cl)c(/C=C3/C(=O)Nc4ccccc43)c2c1 target_desc="U251 CNS" limit_qualifier== measured_number=2.75
molecule="C[C@@H](O)[C@@H](C)Oc1nc(Nc2ccc(S(=N)(=O)C3CC3)cc2)ncc1C(F)(F)F (stereo not given in full)" target_desc="U251 CNS" limit_qualifier== measured_number=13.2
molecule=[N-]=[N+]=CC(=O)C1(C(=O)C=[N+]=[N-])CC1 target_desc="U251 CNS" limit_qualifier=> measured_number=100
molecule="OCC1NC(COC2OC(CO)C(O)C(O)C2O)C(O)C(O)C1O (stereo not given)" target_desc="U251 CNS" limit_qualifier=> measured_number=100
molecule=COc1ccc(-c2nn(-c3cccc(Cl)c3)cc2/C=C2\NC(=S)N(c3ccc(Cl)cc3)C2=O)cc1 target_desc="U251 CNS" limit_qualifier== measured_number=6.99

* * *

Tested on: MDA-MB-435
Outcome codes: active, inactive

cpd_smiles=Oc1ccc(NC(=S)Nc2ccccc2)cc1 classification=inactive
cpd_smiles=COc1ccc(-c2nn(-c3cccc(Cl)c3)cc2/C=C2\NC(=S)N(c3ccc(Cl)cc3)C2=O)cc1 classification=inactive
cpd_smiles=CC[C@@]1(O)C(=O)OCc2c1cc1n(c2=O)Cc2cc3cc(Cl)ccc3nc2-1 classification=active
cpd_smiles=CNC(=O)c1cc(Oc2ccc3nc(NC(=O)Nc4ccc(CN5CCOCC5)c(C(F)(F)F)c4)sc3c2)ccn1 classification=inactive
cpd_smiles=CCn1cnc(C[C@H](NC(=O)[C@H](CCCCNC(=O)Nc2cc(C(F)(F)F)cc(C(F)(F)F)c2)NC(=O)Nc2cc(C(F)(F)F)cc(C(F)(F)F)c2)C(=O)OC)c1 classification=inactive
cpd_smiles=CN1CCN(CCCOc2cccc3nc(Nc4cc(Cl)cc(Cl)c4)ccc23)CC1 classification=inactive
cpd_smiles=Cc1cc(F)c(C(=O)Nc2cccc(-c3nncn3C(C)C)n2)cc1-n1cnc(C2CC2)c1 classification=inactive
cpd_smiles=NC(N)=NN=c1c(=O)c2ccccc2c1=O classification=inactive
cpd_smiles=C1=N[C@]23C(=N[C@H](N=C2NCc2ccco2)[C@]24N=CNC2=N[C@H]3N=C4NCc2ccco2)N1 classification=inactive
cpd_smiles=O=C(Nc1ccc(OS(=O)(=O)c2ccc(F)cc2)cc1)C12CC3CC(CC(C3)C1)C2 classification=inactive
cpd_smiles=CC1(C)OB(c2ccc(N(CCOS(C)(=O)=O)CCOS(C)(=O)=O)cc2)OC1(C)C classification=inactive
cpd_smiles=O=C(NC1CCN(Cc2ccccc2)CC1)c1cc(-c2cccnc2)nc2ccc(Cl)cc12 classification=inactive

* * *

Parameter TGI: see the listing below.
Tested on: CAKI-1 renal
Test: NCI tumour cell line growth inhibition, 48 h
value.kind: TGI (µM)

compound=O=[N+]([O-])c1cc(C2(N3CCCCC3)CCCCC2)sc1Br value_kind=TGI uom=µM limit_qualifier== measured_number=15.6
compound=N#CCCN(CCC#N)c1ccc(/C=C(/NC(=O)c2cc([N+](=O)[O-])ccc2Cl)C(=O)N=[N+]=[N-])cc1 value_kind=TGI uom=µM limit_qualifier=> measured_number=100
compound=CC/C=C\C[C@H]1C/C=C2/C(=O)C=C[C@H]2C/C=C\CCCC(=O)O1 value_kind=TGI uom=µM limit_qualifier== measured_number=8.23
compound=CCCCCC/C=C/C#CCCCCCCCC(=O)O value_kind=TGI uom=µM limit_qualifier=> measured_number=100
compound=Cc1cc2c(cc1Cl)SC(N(c1ccccc1Cl)S(=O)(=O)c1ccc(Br)s1)=NS2(=O)=O value_kind=TGI uom=µM limit_qualifier== measured_number=48.4
compound=O=C(NC1CCN(Cc2ccccc2)CC1)c1cc(-c2cccnc2)nc2ccc(Cl)cc12 value_kind=TGI uom=µM limit_qualifier== measured_number=19.1
compound="COC(=O)C(C(=O)C(=O)Nc1ccc(C)cc1)c1nc2ccc([N+](=O)[O-])cc2[nH]c1=O (stereo not given)" value_kind=TGI uom=µM limit_qualifier=> measured_number=100
compound="Cc1nc2ccccn2c1NC(=O)NN1C(=O)CSC1c1ccc(Cl)cc1 (stereo not given)" value_kind=TGI uom=µM limit_qualifier=> measured_number=100
compound="O=C1CC(c2ccc(Cl)cc2)C2(C(=O)NC(=S)NC2=O)C(c2ccc(Cl)cc2)C1 (stereo not given)" value_kind=TGI uom=µM limit_qualifier== measured_number=74.6
compound="CC(=O)OC1C[C@H]2C(OC(=O)c3ccccc3)C3C4(OC(C)=O)COC4C[C@H](OC(C)=O)[C@@]3(C)C(OC(C)=O)[C@H](OC(C)=O)C(=C1C)C2(C)C (stereo not given in full)" value_kind=TGI uom=µM limit_qualifier== measured_number=31.4
compound=COc1ccc(C(=O)/C=C/c2sc(Cl)nc2Cl)cc1 value_kind=TGI uom=µM limit_qualifier== measured_number=5.45
compound=COc1ccccc1-n1cnc2c1NC(C)(C)N=C2C(N)=O value_kind=TGI uom=µM limit_qualifier=> measured_number=100
compound=CN1CCN(CCCOc2cccc3nc(Nc4cc(Cl)cc(Cl)c4)ccc23)CC1 value_kind=TGI uom=µM limit_qualifier== measured_number=11.7
compound=C[N+]1=C(c2cccnc2/C=N/O)OCC1(C)C value_kind=TGI uom=µM limit_qualifier=> measured_number=100
compound=O=c1oc2ccc([N+](=O)[O-])cc2nc1/C=C(\O)c1ccccc1 value_kind=TGI uom=µM limit_qualifier=> measured_number=100
compound=Cc1ccc(S(=O)(=O)NC(=O)C2S(=O)(=O)OCCOS2(=O)=O)cc1 value_kind=TGI uom=µM limit_qualifier=> measured_number=100
compound=O=C1c2ccccc2N=C(c2cc3c(cc2Cl)Sc2nccn2S3(=O)=O)OS(=O)(=O)N1c1ccccc1 value_kind=TGI uom=µM limit_qualifier=> measured_number=100
compound=Nc1nc(Cl)cc(NCC2(CO)CCCCC2)n1 value_kind=TGI uom=µM limit_qualifier=> measured_number=100
compound=O=Cc1c2c(cc3c1CC1(C3)Cc3cc4c(c(C=O)c3C1)CCCC4)CCCC2 value_kind=TGI uom=µM limit_qualifier=> measured_number=100
compound="COC1(OC)CC2C(=O)N(Cc3ccccc3)C1C(S(=O)(=O)c1ccccc1)C2C(C)S(=O)(=O)c1ccccc1 (stereo not given)" value_kind=TGI uom=µM limit_qualifier=> measured_number=100
